- System: PPARg homodimer (NR concentration 180 nM)
- Assay: PBM binding z-score (relative to random genomic background probes); higher = stronger binding; sequences stand for … in GC…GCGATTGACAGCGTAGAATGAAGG
Readout name: PBM binding z-score
Numbers only.

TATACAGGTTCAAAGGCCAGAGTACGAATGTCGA | 1.53

Answer for every listed entry: what is its PBM binding z-score? The entries follow.
1. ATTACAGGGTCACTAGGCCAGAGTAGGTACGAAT
2. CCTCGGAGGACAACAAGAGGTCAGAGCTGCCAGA

1: 2.63; 2: 1.86

----------
- System: THRa homodimer (NR concentration 90 nM)
- Assay: PBM binding z-score (relative to random genomic background probes); higher = stronger binding; sequences stand for … in GC…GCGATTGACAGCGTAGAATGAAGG
Response key: YES means PBM binding z-score >= 0.5; NO means PBM binding z-score < 0.5.

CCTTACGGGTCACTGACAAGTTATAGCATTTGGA | NO

API: above_or_equal(metric=PBM binding z-score, cutoff=0.5) for item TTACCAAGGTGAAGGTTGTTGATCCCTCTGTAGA
YES

API: above_or_equal(metric=PBM binding z-score, cutoff=0.5) for item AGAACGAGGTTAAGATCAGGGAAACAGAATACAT
YES

API: above_or_equal(metric=PBM binding z-score, cutoff=0.5) for item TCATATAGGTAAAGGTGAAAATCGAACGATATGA
NO

API: above_or_equal(metric=PBM binding z-score, cutoff=0.5) for item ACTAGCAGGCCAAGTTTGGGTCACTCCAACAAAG
YES

API: above_or_equal(metric=PBM binding z-score, cutoff=0.5) for item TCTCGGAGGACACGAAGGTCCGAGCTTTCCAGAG
NO

API: above_or_equal(metric=PBM binding z-score, cutoff=0.5) for item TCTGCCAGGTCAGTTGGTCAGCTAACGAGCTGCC
YES

API: above_or_equal(metric=PBM binding z-score, cutoff=0.5) for item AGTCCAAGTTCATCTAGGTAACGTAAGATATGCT
NO

----------
- System: RARb homodimer (NR concentration 270 nM)
- Assay: PBM binding z-score (relative to random genomic background probes); higher = stronger binding; sequences stand for … in GC…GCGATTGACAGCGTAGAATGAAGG
Readout name: PBM binding z-score
Give bare numbers.

CATGCTAGGTCATGGTCAGCTAATCTACAGTATG | 3.06

Answer for every listed entry: what is its PBM binding z-score? The entries follow.
1. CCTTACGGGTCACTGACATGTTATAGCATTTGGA
2. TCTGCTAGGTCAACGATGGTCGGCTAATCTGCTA
3. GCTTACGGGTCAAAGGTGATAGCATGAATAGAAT

[3.05, 3.13, 2.94]

----------
- Tested on: LXRa:RXRa (NR concentration 270 nM, RXRa partner concentration 90 nM)
- Assay: PBM binding z-score (relative to random genomic background probes); higher = stronger binding; sequences stand for … in GC…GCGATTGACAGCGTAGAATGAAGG
Task for the reader: assign each of the following sequences its reported PBM binding z-score.
One number for each entry.

Solved entries:
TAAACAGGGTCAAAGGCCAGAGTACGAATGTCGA | 5.57
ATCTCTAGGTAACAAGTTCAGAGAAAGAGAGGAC | 0.957
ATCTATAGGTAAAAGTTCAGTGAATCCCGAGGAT | 1.58
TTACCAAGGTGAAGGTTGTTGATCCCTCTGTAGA | 0.801

Answer for every listed entry: what is its PBM binding z-score? The entries follow.
1. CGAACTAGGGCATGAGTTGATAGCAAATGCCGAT
2. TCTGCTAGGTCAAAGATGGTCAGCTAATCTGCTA
3. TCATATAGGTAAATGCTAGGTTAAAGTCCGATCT
4. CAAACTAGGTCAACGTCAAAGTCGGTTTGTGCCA
5. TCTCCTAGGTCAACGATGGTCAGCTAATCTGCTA
6. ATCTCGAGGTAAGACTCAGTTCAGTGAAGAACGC
7. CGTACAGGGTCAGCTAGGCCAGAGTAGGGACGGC
8. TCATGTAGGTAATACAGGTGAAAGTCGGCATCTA

-0.357
3.06
1.82
2.64
3.59
-0.0595
2.66
0.506

meta.source: the supplement of paper PMC6555819
